- protocol_description: Form stability experiment of crystalline forms (XRD crystalline form test after storage)
- Format: physicochemical
- stated_conditions: one month in a dry environment at room temperature and at 60° C.; methanesulfonate
observable: form stability on storage (form kept or changed, appearance)

compound: CCN1CCN(Cc2ccc(Nc3ncc(F)c(-c4cc(F)c5nc(C)n(C(C)C)c5c4)n3)nc2)CC1.CS(=O)(=O)O [Abemaciclib mesylate Form 6]
result: kept its form unchanged
--
compound: CCN1CCN(Cc2ccc(Nc3ncc(F)c(-c4cc(F)c5nc(C)n(C(C)C)c5c4)n3)nc2)CC1.CS(=O)(=O)O [Abemaciclib mesylate Form 8]
result: kept its form unchanged
--
compound: CCN1CCN(Cc2ccc(Nc3ncc(F)c(-c4cc(F)c5nc(C)n(C(C)C)c5c4)n3)nc2)CC1.CS(=O)(=O)O [Abemaciclib mesylate Form 5]
result: kept its form unchanged
--
compound: CCN1CCN(Cc2ccc(Nc3ncc(F)c(-c4cc(F)c5nc(C)n(C(C)C)c5c4)n3)nc2)CC1.CS(=O)(=O)O [Abemaciclib mesylate Form 2]
result: kept its form unchanged
--
compound: CCN1CCN(Cc2ccc(Nc3ncc(F)c(-c4cc(F)c5nc(C)n(C(C)C)c5c4)n3)nc2)CC1.CS(=O)(=O)O [Abemaciclib mesylate Form 1]
result: kept its form unchanged
